Experiment: in vivo
Settings: female, Balb/c, mouse, ip, 100 mg/kg
measured quantity: Cmax
Write down the value, and be sure its unit follows.

Task: // query Cmax value for entry C[C@H]1COc2c(N3CCN(C)CC3)c(F)cc3c(=O)c(C(=O)O)cn1c23 [Free levofloxacin, levofloxacin]
Output: 2100 ng/mL
